# Tested on: NCI-H23 lung
# methodNotes: NCI tumour cell line growth inhibition, 48 h
readoutName: TGI

>>> print(df.to_string())
                                   compound  readoutname  observedvalue
0                  N/N=C1/C(=N/O)CCc2nonc21          TGI       > 100 µM
1        O=c1[nH]c(-c2ccccc2)nc2ccc(Cl)cc12          TGI       > 100 µM
2  O=C(c1ccccc1)c1c(C(F)(F)F)n([O-])c2cc(Cl)c(Cl)cc2[n+]1=O          TGI        1.11 µM
3  COc1ccc(C(=C(I)c2ccccc2)c2ccc(OC)cc2)cc1          TGI       > 100 µM
4  Cc1nc2cncc(C#Cc3cncc(C(=O)Nc4ccc(CN5CCN(C)CC5)c(C(F)(F)F)c4)c3)c2nc1C          TGI        6.05 µM

Let us examine a further case.
The compound O=C(OCCN1CCCCC1)C(c1ccccc1)C1(O)CCSCC1 (stereo unspecified) , tested on NCI-H23 lung, showed TGI of > 100 µM

###

# Test system: ACHN renal
# methodNotes: NCI tumour cell line growth inhibition, 48 h
readoutName: TGI (µM)
Express it in µM; write the number only.

Solved entries:
>>> df
                                   compound  targetofassay  readoutname  observedvalue
0         c1cc(C2CCCCC2)ccc1OCCCCCCN1CCNCC1     ACHN renal          TGI           3.33
1  O=C1OC2(C(F)(F)F)Oc3ccccc3CN2C12CCCCC2 (centres undefined)     ACHN renal          TGI           38.1
2  O=C1c2ccccc2-c2c1c1ccc([N+](=O)[O-])cc1c(=O)n2CCNCCCNCCn1c2c(c3ccc([N+](=O)[O-])cc3c1=O)C(=O)c1ccccc1-2     ACHN renal          TGI           24.5

C=CC(C)(C)N[C@@H](C(=O)N1CCC[C@H]1c1nc(-c2nc(C(=O)OCC=C(C)C)c(C)o2)c(C)o1)C(C)C has a reported TGI of 88.3

###

# Test system: A498 renal
# methodNotes: NCI tumour cell line growth inhibition, 48 h
readoutName: TGI

Solved entries:
                                   molecule  readoutname  observedvalue
0  NC(c1ccccc1)(C(F)(F)F)P1(=O)OC(=O)c2ccccc2O1 (stereo not given)          TGI       > 100 µM
1  CCCn1c(=O)c2ccccc2[n+]2c(-c3ccc([N+](=O)[O-])cc3)csc12          TGI        74.4 µM
2  O=C1c2ccccc2-c2c1c1ccc([N+](=O)[O-])cc1c(=O)n2CCNCCCNCCn1c2c(c3ccc([N+](=O)[O-])cc3c1=O)C(=O)c1ccccc1-2          TGI        19.1 µM
3  CCOC(=O)C(=O)C1C(=O)Nc2ccccc21 (stereo not given)          TGI       > 100 µM
4     CNS(=O)(=O)NN(C)S(=O)(=O)c1ccc(Cl)cc1          TGI       > 100 µM

[N-]=[N+]=NC1CC(n2cc(COCC(F)(F)F)c(=O)[nH]c2=O)OC1CO (stereo not given) has a reported TGI of > 100 µM

COc1c(OC)c(O)c2c(=O)c(OC)c(-c3ccc4c(c3)OCO4)oc2c1O has a reported TGI of > 100 µM

O=C(Nc1c(Cl)cc([N+](=O)[O-])cc1Cl)C(=O)C1C(=O)NC(=S)NC1=O has a reported TGI of > 100 µM

N#Cc1cccc(C(=O)c2cnn(-c3ccc(F)cc3)c2N)c1 has a reported TGI of > 25 µM

COCN1CCN=c2c1c1c3c(c4ccccc4n23)CCC1 has a reported TGI of > 100 µM

###

Reported TGI is given for each of the following molecules.
# Test system: RPMI-8226 leukemia
# methodNotes: NCI tumour cell line growth inhibition, 48 h

>>> print(df.to_string())
                                   molecule       targetofassay  observedvalue
0  CCc1ccc(-c2ccc(=O)n(-c3ccc(S(N)(=O)=O)cc3)n2)cc1  RPMI-8226 leukemia        7.33 µM
1  CC(NC1=NCCO1)c1cccc([N+](=O)[O-])c1 (stereo not given)  RPMI-8226 leukemia       > 100 µM
2      O=C(NCCCCNCCCNC(=O)c1ccccc1)c1ccccc1  RPMI-8226 leukemia       > 100 µM
3  CC1CCC2(NC1)OC1CC3[C@@H]4CC=C5C=CCC[C@]5(C)C4CC[C@]3(C)C1C2C (stereo not given in full)  RPMI-8226 leukemia          46 µM
4  COc1ccc(C[C@H](N)C(=O)N2C[C@H](CO)C[C@H](n3cnc4c(N(C)C)ncnc43)C2)cc1  RPMI-8226 leukemia       > 100 µM
5  CCOC(=O)c1c2c(n3ccc(NC(=O)OC(C)(C)C)cc13)C(=O)c1ncccc1C2=O  RPMI-8226 leukemia        3.16 µM
6      O=C(CN1CCCCC1)c1ccc2c(c1)Sc1ccccc1O2  RPMI-8226 leukemia       > 100 µM
7  CC(=NCCN(CCN=C(C)c1c(O)cc(C)oc1=O)CCN=C(C)c1c(O)cc(C)oc1=O)c1c(O)cc(C)oc1=O  RPMI-8226 leukemia       > 100 µM

The molecule c1cc(C[S+]2CCCC2)ccc1C[S+]1CCCC1 , tested on RPMI-8226 leukemia, showed TGI of > 100 µM

The molecule COc1ccc(C(=C(I)c2ccccc2)c2ccc(OC)cc2)cc1 , tested on RPMI-8226 leukemia, showed TGI of > 100 µM

###

# Tested on: UACC-257 melanoma
# methodNotes: NCI tumour cell line growth inhibition, 48 h
Reported TGI is given for each of the following molecules.

>>> df
                                   molecule  readoutname  observedvalue
0  OCC(O)C1OC2CC1Nc1ccccc1N2 (stereo unspecified)          TGI       > 100 µM
1  COC(=O)c1nc(-c2ccc3c(n2)C(=O)C(N)=C(OC)C3=O)c(N)c(-c2ccc(OC)c(OC)c2O)c1C          TGI        2.09 µM
2  O=C(/C=C/c1ccc(-c2ccccc2)cc1)NCc1ccc(C(=O)NCCc2c[nH]c3ccccc23)cc1          TGI       > 100 µM
3  CCCn1c(=O)c2ccccc2[n+]2c(-c3ccc([N+](=O)[O-])cc3)csc12          TGI       > 100 µM
4       COCN1CCN=c2c1c1c3c(c4ccccc4n23)CCC1          TGI       > 100 µM
5                  N/N=C1/C(=N/O)CCc2nonc21          TGI       > 100 µM
6  O=C(OCCN1CCCCC1)C(c1ccccc1)C1(O)CCSCC1 (stereo unspecified)          TGI       > 100 µM
7  CC1=C(C(=O)Nc2ccc3[nH]ncc3c2)C(c2ccc(F)cc2)NC(=O)N1 (stereo unspecified)          TGI        > 25 µM

COc1ccc(-c2nc(-c3cc4ccccc4oc3=O)cs2)cc1 has a reported TGI of > 100 µM

CCOP(=O)(OCC)/C(=C\N1C(=O)CC(=O)NC1=S)C(=O)OC has a reported TGI of > 100 µM

CC1=C(C)CC2(SC1)C(=O)c1ccccc1C2=O has a reported TGI of > 100 µM

###

Reported TGI is given for each of the following molecules.
# System: UO-31 renal
# methodNotes: NCI tumour cell line growth inhibition, 48 h
Express it in µM; write the number only.

In [3]: df
Out[3]:
                      structurenotation  readoutname  observedvalue
0  COC(=O)/C=C\C(C#N)(C#N)N=Cc1ccc(C)s1          TGI           3.53

C[C@@H]1COCCN1c1nc(-c2cnc(N)cc2C(F)F)nc(N2[C@H](C)COC[C@@H]2C)n1 has a reported TGI of 11

Cc1nccn1S(=O)(=O)c1ccc(Br)cc1Br has a reported TGI of 68.7

###

# Tested on: MDA-MB-231 breast
# methodNotes: NCI tumour cell line growth inhibition, 48 h
Where a SMILES comes first, the peptide text is derived from it. [ ]: non-standard residue; d: D form. The star is where a group is joined. ξ: configuration not given here. ξD = NC(CC(=O)O)C(=O)O; Ac3c = NC1(C(=O)O)CC1; Boc = CC(C)(C)OC(=O)*; OBn = c1ccc(CO*)cc1
readoutName: TGI

compound	TGI
Cc1ccc2c[c]1[Hg][CH2]COS2(=O)=O	32 µM
O=C1CCC2(CC1CCSc1ccccc1)OCCO2 (stereo not drawn)	> 100 µM
COC(=O)C(Cc1c[nH]c2ccccc12)NC(=O)C(Cc1c[nH]c2ccccc12)NC(=O)C(Cc1c[nH]c2ccccc12)NC(=O)C(Cc1c[nH]c2ccccc12)NC(=O)OC(C)(C)C (stereo not drawn) (Boc-WWWW-OMe; configuration not given here)	> 100 µM
Cc1cc2ccccc2n1CC(=O)N1CCCC1	> 100 µM
COC(=O)C1(NC(=O)C(CC(=O)OCc2ccccc2)NC(=O)OC(C)(C)C)CC1 (stereo not drawn) (Boc-[ξD](OBn)-[Ac3c]-OMe)	> 100 µM

CCN(CC)C(=S)N/N=C/c1ccccn1 has a reported TGI of > 100 µM

O=c1[nH]c(=O)n(COCc2ccccc2)c2ccc(Br)cc12 has a reported TGI of > 100 µM

O=C1C=C2CO[C@H]3OC[C@H](O)[C@@H]1[C@@H]23 has a reported TGI of > 100 µM

CC(NC(=O)OCc1ccccc1)NC(=O)C(CC(=O)OC(C)(C)C)NC(=O)OC(C)(C)C (stereo not drawn) has a reported TGI of > 100 µM

O=C(OCCN1CCCCC1)C(c1ccccc1)C1(O)CCSCC1 (stereo not drawn) has a reported TGI of > 100 µM
